# study-target: Replicase polyprotein 1ab (Severe acute respiratory syndrome coronavirus 2)
Consider the cut-off 0.04 µM. If the recorded IC50 is strictly smaller, the label is TRUE; if not, the label is FALSE.

Exercise: Field: below-cutoff. Rule: recorded IC50 strictly less than 0.04 µM. Subject: CNC(=O)c1cccc([N+](=O)[O-])c1N[C@@H]1CCCC[C@@H]1NC(=O)c1cc(=O)[nH]c2ccccc12
Solution: FALSE

Exercise: And the next one, O=C(N[C@H]1CCCC[C@H]1Nc1c(C(=O)N2CCOCC2)cc(Br)cc1[N+](=O)[O-])c1cc(=O)[nH]c2c(F)cccc12 ?
Solution: TRUE

Exercise: And the next one, CNC(=O)c1cc(Br)cc([N+](=O)[O-])c1N[C@@H]1CCCC[C@@H]1NC(=O)c1cc(=O)[nH]c2c(F)cccc12 ?
Solution: FALSE

Exercise: And the next one, O=C(N[C@H]1CCC[C@H]1Nc1c(C(=O)N2CCOCC2)cc(C2CC2)cc1[N+](=O)[O-])c1cc(=O)[nH]c2c(F)cccc12 ?
Solution: TRUE

Exercise: And the next one, O=C(N[C@H]1CCC[C@H]1Nc1c(C(=O)N2CCOCC2)cc(Br)cc1[N+](=O)[O-])c1cc(=O)[nH]c2c(F)cccc12 ?
Solution: TRUE

Exercise: And the next one, O=C(NCCC(F)(F)F)[C@H]1CN(c2ccc(Cl)c(Cl)c2)CCN1C(=O)c1cc(=O)[nH]c2ccccc12 ?
Solution: FALSE

Exercise: And the next one, CNC(=O)c1cc(Br)cc([N+](=O)[O-])c1N[C@H]1CCC[C@H]1NC(=O)c1cc(=O)[nH]c2ccccc12 ?
Solution: FALSE

Exercise: And the next one, O=C(c1cc(=O)[nH]c2ccccc12)N1CCN(c2ccc(Cl)c(Cl)c2)C[C@@H]1CC1CCCCC1 ?
Solution: FALSE

Exercise: And the next one, O=C1CC2CN(C(=O)C3CN(c4ccc(Cl)c(Cl)c4)CCN3C(=O)c3cc(=O)[nH]c4ccccc34)CC2C1 (stereo not given) ?
Solution: FALSE

Exercise: And the next one, O=C(N[C@H]1CCCC[C@H]1Nc1c(C(=O)N2CCOCC2)cc(Br)cc1[N+](=O)[O-])c1cc(=O)[nH]c2ccccc12 ?
Solution: TRUE

* * *

Observed IC50 for Replicase polyprotein 1ab (Severe acute respiratory syndrome coronavirus 2), reported per entry below.
Please state the figure in nM; there is no need to write the unit.

Exercise: Write down the reported IC50 of O=C(N[C@H]1CCCC[C@H]1Nc1c(C(=O)N2CCOCC2)cc(C2CC2)cc1[N+](=O)[O-])c1cc(=O)[nH]c2c(F)cccc12 , test system: Replicase polyprotein 1ab (Severe acute respiratory syndrome coronavirus 2).
Solution: 11.5

Exercise: And the next one, CC1(C)C2CN(C(=O)C3CN(c4ccc(Cl)c(Cl)c4)CCN3C(=O)c3cc(=O)[nH]c4ccccc34)CC21 (stereo not drawn) ?
Solution: 4510

Exercise: And the next one, CN1CCN(C(=O)C2CN(c3ccc(Cl)c(Cl)c3)CCN2C(=O)c2cc(=O)[nH]c3ccccc23)CC1 (stereo not drawn) ?
Solution: 1320

Exercise: And the next one, COc1ccc2[nH]c(=O)cc(C(=O)N[C@H]3CCCC[C@H]3Nc3c(C(=O)N4CCOCC4)cc(Br)cc3[N+](=O)[O-])c2c1 ?
Solution: 29.2

Exercise: And the next one, O=C1CCN(C(=O)C2CN(c3ccc(Cl)c(Cl)c3)CCN2C(=O)c2cc(=O)[nH]c3ccccc23)CC1 (stereo not drawn) ?
Solution: 3310

Exercise: And the next one, O=C(c1cc(=O)[nH]c2ccccc12)N1CCN(c2ccc(Cl)c(Cl)c2)CC1CN1CCOCC1 (stereo not drawn) ?
Solution: 150

Exercise: And the next one, O=C1CC2(CCN(C(=O)C3CN(c4ccc(Cl)c(Cl)c4)CCN3C(=O)c3cc(=O)[nH]c4ccccc34)CC2)C1 (stereo not drawn) ?
Solution: 1290

Exercise: And the next one, O=C(NCC1CCCC1)C1CN(c2ccc(Cl)c(Cl)c2)CCN1C(=O)c1cc(=O)[nH]c2ccccc12 (stereo not drawn) ?
Solution: 280

Exercise: And the next one, O=C(NCCCC(F)(F)F)C1CN(c2ccc(Cl)c(Cl)c2)CCN1C(=O)c1cc(=O)[nH]c2ccccc12 (stereo not drawn) ?
Solution: 200

Exercise: And the next one, O=C(NCC1CCO1)C1CN(c2ccc(Cl)c(Cl)c2)CCN1C(=O)c1cc(=O)[nH]c2ccccc12 (stereo not drawn) ?
Solution: 310

Exercise: And the next one, CN1CCN(C(=O)c2cc(Br)cc([N+](=O)[O-])c2N[C@@H]2CCC[C@@H]2NC(=O)c2cc(=O)[nH]c3c(F)cccc23)CC1 ?
Solution: 28.6

Exercise: And the next one, O=C(N[C@H]1CCCC[C@H]1Nc1c(C(=O)N2CCOCC2)cc(Br)cc1[N+](=O)[O-])c1cc(=O)[nH]c2cc(F)ccc12 ?
Solution: 38.7

Exercise: And the next one, O=C(NCC1CC1)C1CN(c2ccc(Cl)c(Cl)c2)CCN1C(=O)c1cc(=O)[nH]c2ccccc12 (stereo not drawn) ?
Solution: 340
